Recorded measurements of pIC50, one per entry
molecular target: Human Factor D (Homo sapiens (Human)); assay: Human Factor D Assay; assay type: biochemical; conditions: Human Factor D 80 nM, substrate Z-L-Lys-SBzl; read-out: IC50
Sequence (P00746 26-253): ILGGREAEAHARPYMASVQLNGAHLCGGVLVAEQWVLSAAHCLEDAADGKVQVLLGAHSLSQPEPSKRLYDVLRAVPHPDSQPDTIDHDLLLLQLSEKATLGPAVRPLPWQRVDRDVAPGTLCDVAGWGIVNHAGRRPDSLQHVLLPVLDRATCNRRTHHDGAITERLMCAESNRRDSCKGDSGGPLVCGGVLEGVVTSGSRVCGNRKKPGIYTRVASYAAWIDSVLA
pIC50: −log10 of the molar value.

Solved cases (3 shown):
For this compound ( "CC(=O)c1cn(CC(=O)N2C[C@H](F)C[C@H]2C(=O)Nc2nnc(-c3ccc(Cl)c(Cl)c3)s2)c2ccc(-c3ccnnc3)cc12" ), measured pIC50 is < 5.00

pIC50 for "Cc1ccnn1-c1ccccc1NC(=O)[C@@H]1C[C@@H](F)CN1C(=O)Cn1nc(C(N)=O)c2cc(-c3ccnnc3)ccc21" is < 5.00

Item: "CC(=O)c1nn(CC(=O)N2[C@@H]3C[C@@H]3C[C@H]2C(=O)Nc2cccc(Br)n2)c2ccc(-c3cnc(C)nc3)cc12" | pIC50: > 6.00

---
Lab note: measured pIC50 of "CC(=O)c1cn(CC(=O)N2C[C@H](F)C[C@H]2C(=O)Nc2cccc(-c3ccccc3Cl)c2F)c2ccc(N3CCN(c4ncccn4)CC3)cc12" was > 6.00

Recorded result, "COc1ncc(-c2ccc3c(c2)c(C(C)=O)cn3CC(=O)N2C[C@H](F)C[C@H]2C(=O)Nc2cccc(-c3ccccc3Cl)c2F)cn1" , pIC50: > 6.00

The measured pIC50 associated with "CC(=O)c1cn(CC(=O)N2C[C@H](F)C[C@H]2C(=O)Nc2cncc(Cl)c2)c2ccc(-c3ccnnc3)cc12" reads > 6.00
